# MEASUREMENT TARGET: D(2) dopamine receptor (Homo sapiens) (UniProt P14416)
# Sequence (P14416 whole entry): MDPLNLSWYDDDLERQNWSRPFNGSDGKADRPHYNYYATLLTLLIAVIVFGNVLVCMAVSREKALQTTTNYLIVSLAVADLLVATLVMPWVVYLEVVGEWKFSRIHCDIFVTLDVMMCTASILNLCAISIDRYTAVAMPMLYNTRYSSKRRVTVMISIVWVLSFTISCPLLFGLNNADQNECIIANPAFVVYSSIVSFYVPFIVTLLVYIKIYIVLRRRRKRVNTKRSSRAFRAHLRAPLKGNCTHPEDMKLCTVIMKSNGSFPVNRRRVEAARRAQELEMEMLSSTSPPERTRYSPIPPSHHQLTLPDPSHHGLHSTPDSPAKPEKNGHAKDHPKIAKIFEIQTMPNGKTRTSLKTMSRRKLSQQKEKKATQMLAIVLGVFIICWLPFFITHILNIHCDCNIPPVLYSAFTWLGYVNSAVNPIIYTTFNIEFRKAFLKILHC
# ASSAY NOTES: Displacement of [3H]Raclopride from recombinant human D2L receptor expressed in Flp-In CHO cell membranes after 2 to 3 hrs by microbeta counting method
PROPERTY: log10 Kb (log10 of the value in µM)
Log scale reminder: Kb in µM, then log10 taken.

COMPOUND STRING: CCN(CC)c1ncnc2sc3c(c12)CCCC3
MEASUREMENT TARGET: D(2) dopamine receptor (Homo sapiens) (UniProt P14416)
QUANTITATIVE RESULT: 1.23

Ask: Look up D(2) dopamine receptor (Homo sapiens) (UniProt P14416) data: log10 Kb of FC(F)(F)c1cccc(Nc2nc(CN3CCOCC3)nc3sc4c(c23)CCC4)c1 , then report it.
Reply: 1.77

Ask: Determine reported log10 Kb for FC(F)(F)c1cccc(Nc2nc(CN3CCOCC3)nc3sc4c(c23)CCCCC4)c1 ; test system: D(2) dopamine receptor (Homo sapiens) (UniProt P14416).
Reply: 1.57

Ask: Check D(2) dopamine receptor (Homo sapiens) (UniProt P14416) data and give log10 Kb for CCN(CC)c1ncnc2sccc12 .
Reply: 1.36

Ask: Give log10 Kb only, for CN(C)c1nc(CN2CCOCC2)nc2sc(Cc3ccccc3)cc12 , using D(2) dopamine receptor (Homo sapiens) (UniProt P14416) data.
Reply: 1.48

Ask: Provide log10 Kb, recorded with D(2) dopamine receptor (Homo sapiens) (UniProt P14416), of FC(F)(F)c1cccc(Nc2nc(CN3CCOCC3)nc3sc(Cc4ccccc4)cc23)c1
Reply: 1.70

Ask: Print D(2) dopamine receptor (Homo sapiens) (UniProt P14416) log10 Kb for Oc1cccc(Nc2nc(CN3CCOCC3)nc3sc4c(c23)CCCC4)c1 .
Reply: 1.54

Ask: Output reported log10 Kb of the molecule FC(F)(F)c1cccc(Nc2nc(CN3CCOCC3)nc3scc(C4CCCCC4)c23)c1 on D(2) dopamine receptor (Homo sapiens) (UniProt P14416).
Reply: 1.58

Ask: Report its log10 Kb with D(2) dopamine receptor (Homo sapiens) (UniProt P14416) as the test system: COc1cccc(Nc2nc(CN3CCOCC3)nc3sc4c(c23)CCCC4)c1
Reply: 1.68

Ask: Print D(2) dopamine receptor (Homo sapiens) (UniProt P14416) log10 Kb for FC(F)(F)c1cccc(Nc2nc(CN3CCOCC3)nc3sc(-c4ccccc4)cc23)c1 .
Reply: 1.65

Ask: Given FC(F)(F)c1cccc(Nc2nc(CN3CCOCC3)nc3scc(-c4ccccc4)c23)c1 , report its log10 Kb on D(2) dopamine receptor (Homo sapiens) (UniProt P14416).
Reply: 1.69

Ask: Recall the reported log10 Kb of FC(F)(F)c1cccc(Nc2nc(CN3CCOCC3)nc3sc(C4CCCCC4)cc23)c1 when tested on D(2) dopamine receptor (Homo sapiens) (UniProt P14416).
Reply: 1.66

Ask: GET log10 Kb where system = D(2) dopamine receptor (Homo sapiens) (UniProt P14416) and item = FC(F)(F)c1cccc(Nc2nc(CCN3CCOCC3)nc3sc4c(c23)CCCC4)c1
Reply: 1.85

Ask: Lab note: record log10 Kb of CCN(CC)c1nc(CN2CCOCC2)nc2sc3c(c12)CCCC3 tested on D(2) dopamine receptor (Homo sapiens) (UniProt P14416).
Reply: 0.78

Ask: Look up and report log10 Kb, with D(2) dopamine receptor (Homo sapiens) (UniProt P14416) as system, for c1ccc(Nc2nc(CN3CCOCC3)nc3sc4c(c23)CCCC4)cc1
Reply: 2.00
